Attribution: patent US5223515A

test: Solubility of Compound (I-1) in water at different pH; assay type: physicochemical; details: pH 11, water
Measured Attribute: Solubility (µg/mL)
Quick note: give the figure in µg/mL, leave out the unit.

Input: Fill blank: measured Solubility of the compound Cc1c(OCC(F)(F)F)ccnc1C[S+]([O-])c1nc2ccccc2[nH]1 (stereo not shown) is ____.
Output: 1000
